Molecular target: T1, Jo-1 (UniProt P12081)
T1 sequence (looked up): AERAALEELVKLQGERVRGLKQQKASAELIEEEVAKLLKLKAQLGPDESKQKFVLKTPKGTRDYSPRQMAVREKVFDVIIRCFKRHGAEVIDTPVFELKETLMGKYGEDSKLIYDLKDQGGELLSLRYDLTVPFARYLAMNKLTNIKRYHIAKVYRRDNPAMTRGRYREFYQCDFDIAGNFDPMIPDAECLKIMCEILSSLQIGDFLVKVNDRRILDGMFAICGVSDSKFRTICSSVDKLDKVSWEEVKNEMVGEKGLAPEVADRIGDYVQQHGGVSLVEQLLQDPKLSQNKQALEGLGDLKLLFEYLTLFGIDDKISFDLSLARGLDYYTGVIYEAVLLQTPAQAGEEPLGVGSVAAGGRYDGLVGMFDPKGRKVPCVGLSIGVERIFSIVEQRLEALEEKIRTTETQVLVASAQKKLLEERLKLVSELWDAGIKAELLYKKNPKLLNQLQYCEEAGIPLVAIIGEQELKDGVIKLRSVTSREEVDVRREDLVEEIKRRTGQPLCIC
Assay: AtheNA, Ab 12.5 ug/ml
Outcome Measure: Athena reading (relative luminescence units)

| Binder | Observed Value |
| --- | --- |
| CH236_4A/293i (antibody, from a related filing, V domains shown) VH: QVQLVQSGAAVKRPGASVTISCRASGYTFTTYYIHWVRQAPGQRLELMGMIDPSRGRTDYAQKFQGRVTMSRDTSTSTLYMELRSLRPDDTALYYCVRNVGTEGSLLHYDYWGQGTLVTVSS VL: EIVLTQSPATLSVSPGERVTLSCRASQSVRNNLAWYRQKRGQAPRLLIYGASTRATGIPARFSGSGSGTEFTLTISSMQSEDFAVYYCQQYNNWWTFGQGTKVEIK | 19 |
